# Test protocol: Stability in human plasma assessed as percentage intact peptide at 100 uM incubated for 10 mins by LC-HRMS analysis
# Format: ADME, cell-free
# Experimental conditions: read-out: Stability
Measurement label: remaining at 10 min, 100 µM (%)

[a] CC[C@H](C)[C@H](NC(=O)[C@H](Cc1ccc(O)cc1)NC(=O)[C@@H]1CCCN1C(=O)[C@H](CCCNC(=N)N)NC(=O)[C@@H](N)CCCNC(=N)N)C(=O)N(C)[C@@H](CC(C)C)C(=O)O
[b] CC[C@H](C)[C@H](NC(=O)[C@H](Cc1ccc(O)cc1)NC(=O)[C@@H]1CCCN1C(=O)[C@H](CCCNC(=N)N)NC(=O)[C@@H](N)CCCNC(=N)N)C(=O)N[C@@H](CC(C)C)C(=O)O
[c] CC[C@H](C)[C@H](NC(=O)[C@H](Cc1ccc(O)cc1)NC(=O)[C@@H]1CCCN1C(=O)[C@H](CCCNC(=N)N)NC(=O)[C@H](CCCNC(=N)N)NC)C(=O)N[C@@H](CC(C)C)C(=O)O.O=C(O)C(F)(F)F.O=C(O)C(F)(F)F.O=C(O)C(F)(F)F
[d] CC(C)C[C@H](NC(=O)[C@@H](NC(=O)[C@H](Cc1ccc(O)cc1)NC(=O)[C@@H]1CCCN1C(=O)[C@H](CCCNC(=N)N)NC(=O)[C@@H](N)CCCNC(=N)N)C(C)(C)C)C(=O)O.O=C(O)C(F)(F)F.O=C(O)C(F)(F)F.O=C(O)C(F)(F)F
Query: Lab note: remaining at 10 min, 100 µM ranking, ascending, for the listed molecules. Reply: labels, ordered per the request.
Response: d, b, a, c

###

# Test protocol: Stability in human plasma assessed as percentage intact peptide at 100 uM incubated for 1 hr by LC-HRMS analysis
# Assay type: ADME, cell-free
# Experimental conditions: read-out: Stability
Measurement label: remaining at 1 h, 100 µM

1) CC[C@H](C)[C@@H](C(=O)N[C@@H](CC(C)C)C(=O)O)N(C)C(=O)[C@H](Cc1ccc(O)cc1)NC(=O)[C@@H]1CCCN1C(=O)[C@H](CCCNC(=N)N)NC(=O)[C@@H](N)CCCNC(=N)N | < 1%
2) CC(C)C[C@H](NC(=O)[C@@H](NC(=O)[C@H](Cc1ccc(O)cc1)NC(=O)[C@@H]1CCCN1C(=O)[C@H](CCCNC(=N)N)N(C)C(=O)[C@@H](N)CCCNC(=N)N)C(C)(C)C)C(=O)O.O=C(O)C(F)(F)F.O=C(O)C(F)(F)F.O=C(O)C(F)(F)F | > 99%
3) CC[C@H](C)[C@H](NC(=O)[C@H](Cc1ccc(O)cc1)N(C)C(=O)[C@@H]1CCCN1C(=O)[C@H](CCCNC(=N)N)NC(=O)[C@@H](N)CCCNC(=N)N)C(=O)N[C@@H](CC(C)C)C(=O)O | < 1%

Lab note: next compound to report on.
Sample CN[C@@H](CCCNC(=N)N)C(=O)N[C@@H](CCCNC(=N)N)C(=O)N1CCC[C@H]1C(=O)N[C@@H](Cc1ccc(O)cc1)C(=O)N[C@H](C(=O)N[C@@H](CC(C)C)C(=O)O)C(C)(C)C.O=C(O)C(F)(F)F.O=C(O)C(F)(F)F.O=C(O)C(F)(F)F ; remaining at 1 h, 100 µM observed: > 99%
